Record form. Attribute: LD50 and 95% CL. Fill in for each entry.
system: Two spotted mite (TSM) Tetranychus urticae Koch; assay: TSM leaf disc bioassay, Potter spray tower; format: in vivo; design: unit not given beside the values; conditions: in vivo
# print the numeric value only

Which value of LD50 and 95% CL has been reported for CC1(C)C(=O)C(CCc2ccccc2)C(=O)C(C)(C)C1=O [Grandiflorone] in the records?
0.04

Cool, now COC1=C(C)C(=O)C(C(=O)C(C)C)C(=O)C1(C)C (centres unmarked) [Tasmanone]
0.055

Let us now turn to COC1=CC(=O)C(C(C)=O)C(=O)C1(C)C (centres unmarked) [Platyphyllol]
0.070
